The entries below come with measured Ratio Ki values attached.
Biological target: Monoamine transporters; serotonin & dopamine (Homo sapiens) (UniProt P31645+Q01959)
Sequence (P31645 whole entry, looked up): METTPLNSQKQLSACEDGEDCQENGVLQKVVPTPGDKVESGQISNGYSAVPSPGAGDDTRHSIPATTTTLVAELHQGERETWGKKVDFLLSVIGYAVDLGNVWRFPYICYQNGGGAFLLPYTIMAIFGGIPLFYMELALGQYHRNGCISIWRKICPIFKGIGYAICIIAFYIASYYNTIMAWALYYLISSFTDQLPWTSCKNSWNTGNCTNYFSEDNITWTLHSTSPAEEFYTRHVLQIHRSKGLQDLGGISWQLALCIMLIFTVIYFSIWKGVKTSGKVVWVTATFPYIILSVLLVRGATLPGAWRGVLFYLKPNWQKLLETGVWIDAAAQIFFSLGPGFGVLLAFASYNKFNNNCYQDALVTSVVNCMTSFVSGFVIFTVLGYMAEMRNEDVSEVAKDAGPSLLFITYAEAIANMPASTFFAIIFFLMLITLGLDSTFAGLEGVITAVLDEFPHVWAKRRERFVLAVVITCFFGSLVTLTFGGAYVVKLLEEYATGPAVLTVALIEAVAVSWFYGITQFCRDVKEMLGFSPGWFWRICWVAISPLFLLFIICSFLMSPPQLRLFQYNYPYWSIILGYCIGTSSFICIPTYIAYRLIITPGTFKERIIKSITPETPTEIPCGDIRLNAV
Sequence (Q01959 whole entry, looked up): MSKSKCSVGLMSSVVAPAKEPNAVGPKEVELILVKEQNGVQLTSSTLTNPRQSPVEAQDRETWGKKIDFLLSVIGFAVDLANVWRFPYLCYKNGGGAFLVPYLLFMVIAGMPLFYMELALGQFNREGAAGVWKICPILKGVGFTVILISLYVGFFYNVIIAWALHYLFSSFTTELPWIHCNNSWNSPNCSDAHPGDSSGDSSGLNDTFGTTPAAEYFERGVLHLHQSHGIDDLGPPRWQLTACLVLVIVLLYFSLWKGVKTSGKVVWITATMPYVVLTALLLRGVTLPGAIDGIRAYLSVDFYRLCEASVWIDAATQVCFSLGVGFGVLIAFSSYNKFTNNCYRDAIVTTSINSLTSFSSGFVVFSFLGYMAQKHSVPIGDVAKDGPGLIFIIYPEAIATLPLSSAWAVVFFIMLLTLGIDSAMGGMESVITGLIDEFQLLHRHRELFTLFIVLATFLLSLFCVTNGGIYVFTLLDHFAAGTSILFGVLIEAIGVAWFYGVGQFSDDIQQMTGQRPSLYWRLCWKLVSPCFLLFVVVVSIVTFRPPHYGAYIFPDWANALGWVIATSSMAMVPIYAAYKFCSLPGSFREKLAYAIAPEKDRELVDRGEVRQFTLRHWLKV
Assay: Selectivity for SERT over DAT
Type: protein assay
Just the number.

The cases that follow already have their Ratio Ki on record.
>  <cpd_smiles>
O[C@H](CCc1ccccc1)CN1CCC(CCOC(c2ccc(F)cc2)c2ccc(F)cc2)CC1

>  <experimental_system>
Monoamine transporters; serotonin & dopamine (Homo sapiens) (UniProt P31645+Q01959)

>  <measured_number>
6

$$$$
>  <cpd_smiles>
C[C@H](Cc1ccccc1)CN1CCC(CCOC(c2ccc(F)cc2)c2ccc(F)cc2)CC1

>  <experimental_system>
Monoamine transporters; serotonin & dopamine (Homo sapiens) (UniProt P31645+Q01959)

>  <measured_number>
61

$$$$
>  <cpd_smiles>
O[C@H](CCN1CCC(CCOC(c2ccc(F)cc2)c2ccc(F)cc2)CC1)c1ccccc1

>  <experimental_system>
Monoamine transporters; serotonin & dopamine (Homo sapiens) (UniProt P31645+Q01959)

>  <measured_number>
51

$$$$
>  <cpd_smiles>
N[C@@H](Cc1ccccc1)CN1CCC(CCOC(c2ccc(F)cc2)c2ccc(F)cc2)CC1

>  <experimental_system>
Monoamine transporters; serotonin & dopamine (Homo sapiens) (UniProt P31645+Q01959)

>  <measured_number>
12

$$$$
>  <cpd_smiles>
O[C@H](CCN1CCC(CCOC(c2ccccc2)c2ccccc2)CC1)c1ccccc1

>  <experimental_system>
Monoamine transporters; serotonin & dopamine (Homo sapiens) (UniProt P31645+Q01959)

>  <measured_number>
158

$$$$
>  <cpd_smiles>
Fc1ccc(C(OCCC2CCN(CC3=Cc4ccccc4CC3)CC2)c2ccc(F)cc2)cc1

>  <experimental_system>
Monoamine transporters; serotonin & dopamine (Homo sapiens) (UniProt P31645+Q01959)

>  <measured_number>
118

$$$$
>  <cpd_smiles>
C[C@@H](CCN1CCC(CCOC(c2ccc(F)cc2)c2ccc(F)cc2)CC1)c1ccccc1

>  <experimental_system>
Monoamine transporters; serotonin & dopamine (Homo sapiens) (UniProt P31645+Q01959)

>  <measured_number>
22

$$$$

Could you share which Ratio Ki value was measured for "Fc1ccc(C(OCCC2CCN(C[C@@H]3C[C@H]3c3ccccc3)CC2)c2ccc(F)cc2)cc1" ?
32
